Numbers sourced from patent US20250026761A1.

Below: a set of entries, each annotated with reported IC50.
Molecular target: MMP2 (Homo sapiens, UniProt P08253)
Sequence (P08253 110-452 limits assumed): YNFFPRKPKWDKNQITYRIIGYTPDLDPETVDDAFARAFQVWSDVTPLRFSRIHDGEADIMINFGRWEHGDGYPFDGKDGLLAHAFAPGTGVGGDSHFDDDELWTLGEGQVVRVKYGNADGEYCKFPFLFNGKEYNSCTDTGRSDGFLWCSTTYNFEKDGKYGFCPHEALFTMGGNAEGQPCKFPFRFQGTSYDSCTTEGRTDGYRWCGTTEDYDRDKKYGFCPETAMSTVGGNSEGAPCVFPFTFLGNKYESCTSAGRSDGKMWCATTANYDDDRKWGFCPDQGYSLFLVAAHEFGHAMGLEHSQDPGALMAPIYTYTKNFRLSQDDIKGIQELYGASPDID

[
  {
    "Compound": "COCCOC(=O)N1CC2CCC(C(=O)NO)(C1)N2S(=O)(=O)c1ccc(Oc2ccc(F)cc2)nc1 (stereo not shown)",
    "IC50": "50 to 1000 nM"
  },
  {
    "Compound": "COCCOC(=O)N1CC2CCC(C(=O)NO)(C1)N2S(=O)(=O)c1ccc(-c2cccc(F)c2)nc1 (stereo not shown)",
    "IC50": "50 to 1000 nM"
  },
  {
    "Compound": "COCCOC(=O)N1C[C@@H]2CC[C@](C(=O)NO)(C1)N2S(=O)(=O)c1ccc(Oc2ccc(F)cc2)c(F)c1",
    "IC50": "< 50 nM"
  },
  {
    "Compound": "COCCOC(=O)N1CC2CCC(C(=O)NO)(C1)N2S(=O)(=O)c1cc(F)c(Oc2ccc(F)cc2)c(F)c1 (stereo not shown)",
    "IC50": "50 to 1000 nM"
  },
  {
    "Compound": "O=C(c1ccncc1)N1CC2CCC(C(=O)NO)(C1)N2S(=O)(=O)c1cc(F)c(Oc2ccc(Cl)cc2)c(F)c1 (stereo not shown)",
    "IC50": "50 to 1000 nM"
  },
  {
    "Compound": "COCCOC(=O)N1CC2CCC(C(=O)NO)(C1)N2S(=O)(=O)N1CCC(Oc2ccncc2)CC1 (stereo not shown)",
    "IC50": "< 50 nM"
  },
  {
    "Compound": "COCCOC(=O)N1CC2CCC(C(=O)NO)(C1)N2S(=O)(=O)c1cc(F)c(Oc2ccc(Cl)cc2)c(F)c1 (stereo not shown)",
    "IC50": "50 to 1000 nM"
  }
]
